- Test system: MT4
- method: Inhibition of the spread of HIV infection wild type(WT) in MT-4 human T-lymphoid cells
- Type: functional
- cond: read-out: CIC95
observation.type: log10 IC95 (log10 of the value in µM)
Each number you see is log10 of IC95, and the unit inside the log is µM.

Notebook entry, MT4 assay: log10 IC95 of Cc1nsc(C)c1CNC(=O)[C@H]1N(C(=O)[C@@H](O)C[C@@H](Cc2ccccc2)C(=O)N[C@H]2c3ccccc3OC[C@H]2O)CSC1(C)C = ?
-1.80

Same question, Cc1cccc(C)c1CNC(=O)[C@H]1N(C(=O)[C@H](O)C[C@@H](Cc2ccccc2)C(=O)N[C@H]2c3ccccc3OC[C@H]2O)CSC1(C)C this time
-1.82

Let us now turn to Cc1ccnc(C)c1CNC(=O)[C@H]1N(C(=O)[C@@H](O)C[C@@H](Cc2ccccc2)C(=O)N[C@H]2c3ccccc3OC[C@H]2O)CSC1(C)C
-0.73

Again, but for Cc1cccc(Cl)c1CNC(=O)[C@H]1N(C(=O)[C@@H](O)C[C@@H](Cc2ccccc2)C(=O)N[C@H]2c3ccccc3OC[C@H]2O)CSC1(C)C
-1.51

Same read-out for CC(C)(C)NC(=O)[C@@H]1CN(Cc2cccnc2)CCN1C[C@@H](O)C[C@@H](Cc1ccccc1)C(=O)N[C@H]1c2ccccc2C[C@H]1O ?
-1.35

What do you get for Cc1cccc(C)c1CNC(=O)[C@H]1N(C(=O)[C@@H](O)C[C@@H](Cc2ccccc2)C(=O)N[C@H]2c3ccccc3OC[C@H]2O)CSC1(C)C ?
-1.33

Next compound up: CC1(C)SCN(C(=O)[C@@H](O)C[C@@H](Cc2ccccc2)C(=O)N[C@H]2c3ccccc3OC[C@H]2O)[C@@H]1C(=O)NCc1c(F)cccc1F
-1.64

And for Cc1ccccc1CNC(=O)[C@H]1N(C[C@@H](O)C[C@@H](Cc2ccccc2)C(=O)N[C@H]2c3ccccc3OC[C@H]2O)CSC1(C)C ?
-0.60

Next up: Cc1noc(C)c1CNC(=O)[C@H]1N(C(=O)[C@@H](O)C[C@@H](Cc2ccccc2)C(=O)N[C@H]2c3ccccc3OC[C@H]2O)CSC1(C)C
-0.81

Note, next up: Cc1ccccc1CNC(=O)[C@H]1N(C(=O)[C@@H](O)C[C@@H](Cc2ccccc2)C(=O)N[C@H]2c3ccccc3OC[C@H]2O)CSC1(C)C
-1.72

Next up: Cc1cccc(C)c1CNC(=O)[C@H]1N(C(=O)[C@@H](O)C[C@@H](Cc2ccccc2)C(=O)N[C@H]2c3ccccc3C[C@H]2O)CSC1(C)C
-1.51

###

- system.name: Human immunodeficiency virus type 1 protease (Human immunodeficiency virus 1)
- method: Inhibition of wild type HIV protease
observation.type: pIC50
// pIC50 is dimensionless: -log10 of concentration (M)

Given Cc1ccccc1CNC(=O)[C@H]1N(C[C@@H](O)C[C@@H](Cc2ccccc2)C(=O)N[C@H]2c3ccccc3OC[C@H]2O)CSC1(C)C , state its recorded pIC50.
9.28

Also Cc1cccc(C)c1CNC(=O)[C@H]1N(C(=O)[C@@H](O)C[C@@H](Cc2ccccc2)C(=O)N[C@H]2c3ccccc3C[C@H]2O)CSC1(C)C ?
10.40

###

- system.name: Human immunodeficiency virus type 1 protease (Human immunodeficiency virus 1)
- method: Inhibition of HIV protease of HIV V-18C mutant strain
observation.type: pIC50
Just so you know, pIC50 here is -log10 of the concentration in molar units; reply with that number alone.

What does the data say about its pIC50? Entry: Cc1cccc(C)c1CNC(=O)[C@H]1N(C(=O)[C@@H](O)C[C@@H](Cc2ccccc2)C(=O)N[C@H]2c3ccccc3C[C@H]2O)CSC1(C)C
10.21

Please do the same for Cc1ccccc1CNC(=O)[C@H]1N(C[C@@H](O)C[C@@H](Cc2ccccc2)C(=O)N[C@H]2c3ccccc3OC[C@H]2O)CSC1(C)C as well.
8.06
